# measuredTarget: ZmDRIK1-K217-S514 (Zea mays, UniProt C0P4K9)
# Construct: kinase domain, K217-S514
# Sequence (C0P4K9 1-514): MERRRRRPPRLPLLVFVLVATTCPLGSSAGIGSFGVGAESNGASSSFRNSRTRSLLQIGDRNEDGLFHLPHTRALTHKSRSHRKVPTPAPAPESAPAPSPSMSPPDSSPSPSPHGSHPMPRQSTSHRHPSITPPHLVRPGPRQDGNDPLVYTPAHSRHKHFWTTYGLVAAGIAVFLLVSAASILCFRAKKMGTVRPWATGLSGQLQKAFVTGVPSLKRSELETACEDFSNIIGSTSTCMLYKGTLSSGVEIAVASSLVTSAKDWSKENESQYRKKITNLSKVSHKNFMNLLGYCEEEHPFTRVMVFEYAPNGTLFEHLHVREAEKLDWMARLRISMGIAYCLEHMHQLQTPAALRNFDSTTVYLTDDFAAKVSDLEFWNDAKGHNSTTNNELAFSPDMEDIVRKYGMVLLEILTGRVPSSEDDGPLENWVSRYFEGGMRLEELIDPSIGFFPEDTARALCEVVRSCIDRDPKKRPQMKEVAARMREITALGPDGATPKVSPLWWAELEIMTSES
# assayName: biochemical
# protocolConditions: read-out: dTm B, sheet ZmDRIK1-K217-S514;; DSF, Boltzmann fit, 0.1% DMSO
Where a name gives a salt, the structure may show the parent alone.
assayMetric: ΔTm at 10 µM (°C)
Respond numerically; units are °C and should not be typed.

Given the entry COCC(=O)NC/C=C/c1ccc2ncnc(Nc3ccc(Oc4ccc(C)nc4)c(C)c3)c2c1 , report its measured ΔTm at 10 µM.
-0.357

Ok, now CC(C)N(CCC(=O)c1ccc2ccccc2c1)Cc1ccccc1 [ZM 39923 HCl]
-0.827

Ok, now O=c1[nH]c2ccc(Cl)cc2c(N[C@@H]2CN3CCC2CC3)c1-c1nc2ccccc2[nH]1
-0.3

Ok, now Cc1cc(Nc2nc(N[C@@H](C)c3ccc(F)cc3)c(C#N)cc2F)n[nH]1
-0.27
